Target: ZFP SBS#1262 (synthetic)
Sequence (chain, as listed by the source): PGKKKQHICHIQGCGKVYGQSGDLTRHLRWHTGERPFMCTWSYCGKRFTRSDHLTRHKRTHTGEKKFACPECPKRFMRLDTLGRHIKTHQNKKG
Assay: EMSA
Details: tags: MBP fusion
pKd: −log10 of the molar value.
METRIC_NAME: pKd

>>> print(df.to_string())
                                     binder  metric_name  value_reported
0  TGCGGGGCA (dsDNA) DNA 1: TGCGGGGCA DNA 2: TGCCCCGCA          pKd            8.52

Hello, the source for this data is patent US20030068675, in case you need it.
